# assayed.system: human Y4 receptor (human, UniProt P50391 1-375)
# Sequence (P50391 whole entry): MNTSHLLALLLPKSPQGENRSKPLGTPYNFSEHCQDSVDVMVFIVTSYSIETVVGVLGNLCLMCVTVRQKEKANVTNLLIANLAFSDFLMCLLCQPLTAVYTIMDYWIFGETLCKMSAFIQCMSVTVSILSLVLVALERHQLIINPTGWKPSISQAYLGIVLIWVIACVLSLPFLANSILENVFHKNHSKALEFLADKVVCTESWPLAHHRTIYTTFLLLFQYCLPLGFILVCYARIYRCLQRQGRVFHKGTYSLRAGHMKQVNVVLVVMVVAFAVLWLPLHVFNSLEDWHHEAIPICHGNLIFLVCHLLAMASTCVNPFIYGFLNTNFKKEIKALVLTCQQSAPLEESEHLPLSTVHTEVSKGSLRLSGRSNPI
# assay: 125I-PP displacement
pIC50: −log10 of the molar value.

{"binder": "GPLEPVYPGDNATPEQMAQYAADLRRYINMLTRPRY [6636]", "pIC50": 9.22}
{"binder": "APLEPVYPGDNATPEQMAQYAADLRRYINMLTRPAY [6449]", "pIC50": 8.66}
{"binder": "APLEPVYPGDNATPEELNRYYASLRRYINMLTRPRY [6460]", "pIC50": 9.70}
